Experiment: clinical
Settings: male, human, in vivo, 16 mg
Endpoint Name: AUC(0-t)

// recorded AUC(0-t) for Cc1nccn1C[C@H]1CCc2c(c3cccc4c3n2CCC4)C1=O : 159 ng·h/mL

* * *

Test: clinical
Conditions: male, human, in vivo, iv, 16 mg
Endpoint Name: half-life (h)
Just the number please, in h, no unit attached.

// recorded half-life for Cc1nccn1C[C@H]1CCc2c(c3cccc4c3n2CCC4)C1=O : 1.41

* * *

Assay: clinical
Settings: male, human, in vivo, iv
Endpoint Name: clearance

// recorded clearance for Cc1nccn1C[C@H]1CCc2c(c3cccc4c3n2CCC4)C1=O [Cilansetron] : 550 to 700 mL/min
